Measured values drawn from paper PMC7106896 for this set.

system: MRSA
assay_readout: MIC (µg/mL)
Your answer is read as µg/mL, so omit the unit and give the number.

{"compound": "Cc1ccc(NN=Cc2c(-c3ccc(S(C)(=O)=O)cc3)[nH]c3ccc(C)cc23)cc1", "assay_readout": "MIC", "unit_info": "µg/mL", "reported_result": 1}
{"compound": "CS(=O)(=O)c1ccc(-c2[nH]c3ccc(F)cc3c2/C=N/Nc2ccc(S(N)(=O)=O)cc2)cc1", "assay_readout": "MIC", "unit_info": "µg/mL", "reported_result": 2}
{"compound": "CS(=O)(=O)c1ccc(-c2[nH]c3ccccc3c2C=NNc2ccc(F)cc2)cc1", "assay_readout": "MIC", "unit_info": "µg/mL", "reported_result": 8}

Below: the item to evaluate.
What value of MIC has been reported for the following compound? CO/N=C(\C(=O)N[C@@H]1C(=O)N2C(C(=O)O)=C(CSc3nc(=O)c(=O)[nH]n3C)CS[C@H]12)c1csc(N)n1 [Ceftriaxone, ceftriaxone, reference compound]
32
